Here the recorded pIC50 is given for each entry.
# TARGET_OR_SYSTEM: HLA-B*5301 (human)
# TEST_NAME: competition vs 125I-labeled standard peptide, purified HLA
# STATED_CONDITIONS: remark: other sources report otherwise
pIC50: −log10 of the molar value.

>  <BINDER>
KPYDGIPI [Her2/neu.921.I8]

>  <pIC50>
5.29

$$$$
>  <BINDER>
KPYDGIPA [Her2/neu.921, 8-mer]

>  <pIC50>
6.31

$$$$
